Assay: Pharmacokinetic study in Sprague-Dawley rats
Assay type: in vivo
Details: male, Sprague-Dawley, plasma; rat, 40 mg/kg oral; read-out: Cmax (as printed in text)
Kindly supply the reported Cmax values for the records listed here.
# unit: ng/mL | format: bare number

Query: Requested field: Cmax. Item: Cc1ncc(C(=O)N[C@@H](COC(F)F)C(=O)N[C@@H](COC(F)F)C(=O)N[C@@H](Cc2ccccc2)C(=O)[C@@]2(C)CO2)s1 [FV-162]
Response: 615

Query: # repeat for COC[C@H](NC(=O)c1cnc(C)s1)C(=O)N[C@@H](COC)C(=O)N[C@@H](Cc1ccccc1)C(=O)[C@@]1(C)CO1 [ONX-0912, reference compound]
Response: 1270

Values compiled from paper PMC4650734.
